# Test system: Tyrosine-protein kinase Lck (Homo sapiens)
# Sequence (P06239 whole entry): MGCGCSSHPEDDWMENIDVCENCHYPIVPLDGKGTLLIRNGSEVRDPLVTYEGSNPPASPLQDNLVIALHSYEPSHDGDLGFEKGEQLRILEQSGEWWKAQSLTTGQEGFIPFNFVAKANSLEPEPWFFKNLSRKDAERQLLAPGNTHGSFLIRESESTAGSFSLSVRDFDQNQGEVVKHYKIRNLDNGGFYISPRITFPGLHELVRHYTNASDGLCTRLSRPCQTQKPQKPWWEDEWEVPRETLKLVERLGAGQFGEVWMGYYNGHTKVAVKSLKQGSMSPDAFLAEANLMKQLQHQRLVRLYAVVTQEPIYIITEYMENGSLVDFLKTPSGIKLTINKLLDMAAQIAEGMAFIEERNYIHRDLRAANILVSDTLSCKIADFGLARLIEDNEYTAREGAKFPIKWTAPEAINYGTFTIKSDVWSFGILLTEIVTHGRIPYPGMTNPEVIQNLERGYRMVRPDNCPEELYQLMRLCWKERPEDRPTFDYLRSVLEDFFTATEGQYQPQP
Endpoint: IC50 (µM)
Answers are plain numbers, in µM.

INPUT: Enter reported IC50 observed with Tyrosine-protein kinase Lck (Homo sapiens) for "CC(C)(C)C(=O)Nc1ccc2c(c1)C(=O)C(=O)c1ccccc1-2"
OUTPUT: 3.8
